# Tested on: HSC1 (primary human Schwann cells)
# assay_name: drug sensitivity score (DSS, CellTiter-Glo viability, 72 h) (DSS (dimensionless)); higher = more sensitive; extreme values may be limits of the assay
quantity_measured: drug sensitivity score
Answers are plain numbers.

Here's what some known entries look like.
[
  {
    "compound": "CC[C@]1(O)C[C@@H]2CN(CCc3c([nH]c4ccccc34)[C@@](C(=O)OC)(c3cc4c(cc3OC)N(C)[C@H]3[C@@](O)(C(=O)OC)[C@H](OC(C)=O)[C@]5(CC)C=CCN6CC[C@]43[C@@H]65)C2)C1 [Vinblastine] (max concentration tested 1000 nM)",
    "drug sensitivity score": 19.5
  },
  {
    "compound": "C[C@@H]1C[C@H]2[C@@H]3CCC4=CC(=O)C=C[C@]4(C)[C@@]3(F)[C@@H](O)C[C@]2(C)[C@@]1(O)C(=O)CO [Dexamethasone] (max concentration tested 10000 nM)",
    "drug sensitivity score": 0
  },
  {
    "compound": "Cc1cc(Nc2cc(CN3CCOCC3)c3nc(C)c(Cc4ccc(Cl)cc4F)n3n2)n[nH]1 [Gandotinib] (max concentration tested 10000 nM)",
    "drug sensitivity score": 10.2
  },
  {
    "compound": "COc1ccc(-c2ccc3c(N4CCOC[C@@H]4C)nc(N4CCOC[C@@H]4C)nc3n2)cc1CO [AZD8055] (max concentration tested 10000 nM)",
    "drug sensitivity score": 26.2
  },
  {
    "compound": "C[C@@H](C(=O)O)c1ccc(-c2ccccc2)c(F)c1 [Tarenflurbil] (max concentration tested 10000 nM)",
    "drug sensitivity score": 0
  }
]

Could you report drug sensitivity score for every entry in the following list?
1. Cc1ccc(NC(=O)c2ccc(CN3CCN(C)CC3)cc2)cc1Nc1nc(-c2cccnc2)cs1 [Masitinib] (max concentration tested 10000 nM)
2. O=C(/C=C/c1cccc(S(=O)(=O)Nc2ccccc2)c1)NO [Belinostat] (max concentration tested 10000 nM)
3. O=C(Cc1ccc(-c2ccc(OCCN3CCOCC3)cc2)cn1)NCc1ccccc1 [KX2-391] (max concentration tested 10000 nM)

3.32
15.4
21.4

Could you report drug sensitivity score for every entry in the following list?
1. Cn1cc(CNCC2CCN(c3ncc(C(=O)NO)cn3)CC2)c2ccccc21 [Quisinostat] (max concentration tested 1000 nM)
2. Cc1cc2c(F)c(Oc3ncnn4cc(OC[C@@H](C)O)c(C)c34)ccc2[nH]1 [Brivanib] (max concentration tested 1000 nM)

16
0

Could you report drug sensitivity score for every entry in the following list?
1. COc1cc(Nc2ncc(F)c(Nc3ccc4c(n3)NC(=O)C(C)(C)O4)n2)cc(OC)c1OC [Tamatinib] (max concentration tested 10000 nM)
2. C=CCN(/C=C1/C(=O)O[C@H](COC)[C@@]2(C)C1=C(O)C(=O)C1=C2[C@H](OC(C)=O)C[C@]2(C)C(=O)CC[C@@H]12)CC=C [Sonolisib] (max concentration tested 10000 nM)

1: 5.11; 2: 0

###

# System: ST8814
# assay_name: drug sensitivity score (DSS, CellTox-Green cytotoxicity, 72 h) (DSS (dimensionless)); higher = more cytotoxic; extreme values may be limits of the assay
So I've got a bunch of molecules here, and I need their drug sensitivity score values.
Give bare numbers.

[
  {
    "molecule": "CCOC(=O)CCNc1cc(N2CCc3ccccc3CC2)nc(-c2ccccn2)n1 [GSK-J4] (max concentration tested 100000 nM)",
    "numeric_value": 6.13
  },
  {
    "molecule": "Cc1ccc(NC(=O)c2ccc(CN3CCN(C)CC3)cc2)cc1Nc1nc(-c2cccnc2)cs1 [Masitinib] (max concentration tested 10000 nM)",
    "numeric_value": 4.31
  },
  {
    "molecule": "CC(C)(C)c1cc(NC(=O)Nc2ccc(-c3cn4c(n3)sc3cc(OCCN5CCOCC5)ccc34)cc2)no1 [Quizartinib] (max concentration tested 1000 nM)",
    "numeric_value": 0
  },
  {
    "molecule": "Cc1c(CN2CCN(C(=O)[C@H](C)O)CC2)sc2c(N3CCOCC3)nc(-c3cnc(N)nc3)nc12 [GDC-0980] (max concentration tested 10000 nM)",
    "numeric_value": 1.59
  },
  {
    "molecule": "Nc1nccc(-c2c(-c3ccc(F)cc3)ncn2C2CCCCC2)n1 (max concentration tested 10000 nM)",
    "numeric_value": 0
  }
]

Could you report drug sensitivity score for every entry in the following list?
1. CO[C@H]1[C@@H](N(C)C(=O)c2ccccc2)C[C@@H]2O[C@@]1(C)n1c3ccccc3c3c4c(c5c6ccccc6n2c5c31)C(=O)NC4 [Midostaurin] (max concentration tested 10000 nM)
2. Nc1nc(Cl)nc2c1ncn2[C@@H]1O[C@H](CO)[C@@H](O)[C@@H]1F [Clofarabine] (max concentration tested 10000 nM)
3. N#CCNC(=O)c1ccc(-c2ccnc(Nc3ccc(N4CCOCC4)cc3)n2)cc1 [Momelotinib] (max concentration tested 10000 nM)
4. CCC1(c2ccc(N)cc2)CCC(=O)NC1=O (configuration not stated) [Aminoglutethimide] (max concentration tested 10000 nM)
5. CCn1c(-c2nonc2N)nc2cnc(Oc3cccc(NC(=O)c4ccc(OCCN5CCOCC5)cc4)c3)cc21 (max concentration tested 10000 nM)

1. 11.1
2. 8.58
3. 0
4. 0
5. 0

Could you report drug sensitivity score for every entry in the following list?
1. CN(c1ccccc1CNc1nc(Nc2ccc3c(c2)CC(=O)N3)ncc1C(F)(F)F)S(C)(=O)=O (max concentration tested 10000 nM)
2. O=C(Nc1c[nH]nc1-c1nc2ccc(CN3CCOCC3)cc2[nH]1)NC1CC1 [AT9283] (max concentration tested 1000 nM)

1: 3.58; 2: 15.5
